Tested on: HCT-15
Measured GI50 values are reported for all entries that follow.
experimental readout: GI50

>  <compound>
O=C1C2C=CC(n3[nH]c(=O)n(Cc4ccccc4)c3=O)CC2C(=O)N1c1ccc(Br)cc1 (stereo not drawn)

>  <experimental readout>
GI50

>  <result>
> 100 µM

$$$$
>  <compound>
O=C(Nc1ccccc1)c1nn(-c2cc(S(=O)(=O)O)c([N+](=O)[O-])cc2Cl)[n+](-c2cc(S(=O)(=O)[O-])c([N+](=O)[O-])cc2Cl)n1

>  <experimental readout>
GI50

>  <result>
> 100 µM

$$$$
>  <compound>
[N-]=[N+]=C(C(=O)OCC#CCOC(=O)C(=[N+]=[N-])S(=O)(=O)c1ccccc1)S(=O)(=O)c1ccccc1

>  <experimental readout>
GI50

>  <result>
> 10 µM

$$$$

---

System: K562
Test: NCI tumour cell line growth inhibition, 48 h
Active and inactive are the calls of the source. Cut-off read from the data, not from the text of the source: active = GI50 up to about 1.1 µM and inactive = higher.

>  <molecule>
COC1(CC[C@@H](C)COC2OC(CO)C(O)C(O)C2O)O[C@H]2C[C@H]3[C@@H]4CC=C5C[C@@H](OC6OC(CO)C(OC7OC(C)C(O)C(O)C7O)C(O)C6OC6OC(C)C(O)C(O)C6O)CC[C@]5(C)[C@H]4CC[C@]3(C)[C@H]2[C@@H]1C (stereo partly drawn)

>  <GI50>
18.2 µM (inactive)

$$$$
>  <molecule>
CCCC(Sc1nc(N)nc2nc[nH]c12)C(=O)O (stereo not drawn)

>  <GI50>
37.7 µM (inactive)

$$$$
>  <molecule>
Cc1ccc(/C=C/C(=O)c2cccc3ccccc23)cc1

>  <GI50>
8.65 µM (inactive)

$$$$
>  <molecule>
CCOP(=O)(OCC)c1ccc(=O)[nH]c1-c1cccs1

>  <GI50>
> 100 µM (inactive)

$$$$
>  <molecule>
O=C(O)CCCN/C(=C1\C(=O)C(=O)N(c2ccccc2)C1=O)c1ccccc1

>  <GI50>
> 100 µM (inactive)

$$$$
>  <molecule>
CCCCCCCC(CC(=O)NC(CO)C(=O)NC(CO)CC(C)C)OC(=O)CC(CCCCCCC)OC(=O)CC(CCCCCCC)OC1OC(C)C(O)C(OC2OC(C)C(O)C(OC(C)=O)C2O)C1O (stereo not drawn)

>  <GI50>
12.4 µM (inactive)

$$$$
>  <molecule>
Cc1ccc(-c2cn3c(nc4ccccc43)c(/C=C/c3ccco3)n2)cc1

>  <GI50>
37.7 µM (inactive)

$$$$
>  <molecule>
Cc1cc2ccccc2oc(=O)/c1=N\Nc1ccccc1

>  <GI50>
14.5 µM (inactive)

$$$$

---

Test system: Hs-578T
Test: NCI tumour cell line growth inhibition, 48 h
Calls of active or inactive are those of the source. Rule as the data show it: active = GI50 up to about 1.1 µM and inactive = higher.

>  <compound>
CC(NC(=O)OCc1ccccc1)NC(=O)C(CC(=O)OC(C)(C)C)NC(=O)OC(C)(C)C (configuration not stated)

>  <GI50>
> 100 µM (inactive)

$$$$
>  <compound>
CCNC(=S)N/N=C/c1cc(OC)ccc1O

>  <GI50>
> 100 µM (inactive)

$$$$
>  <compound>
O=C1CCCC2=C1CC1=C(CCCC1=O)N2c1ccccc1C(=O)O

>  <GI50>
> 100 µM (inactive)

$$$$
>  <compound>
NC(=O)c1cc2ccccc2o/c1=N/O

>  <GI50>
26.2 µM (inactive)

$$$$
>  <compound>
O=C(Nc1ccccc1)c1nn(-c2cc(S(=O)(=O)O)c([N+](=O)[O-])cc2Cl)[n+](-c2cc(S(=O)(=O)[O-])c([N+](=O)[O-])cc2Cl)n1

>  <GI50>
> 100 µM (inactive)

$$$$
>  <compound>
O=C1c2cc([N+](=O)[O-])ccc2-c2ccc3c4ccc5c6c(ccc(c7ccc1c2c73)c64)C(=O)c1cc([N+](=O)[O-])ccc1-5

>  <GI50>
> 100 µM (inactive)

$$$$
>  <compound>
COc1c(-c2ccc(O)c(O)c2)oc2c(O)c(O)cc(O)c2c1=O

>  <GI50>
49.5 µM (inactive)

$$$$
